Listing of entries alongside the reported apparent KD of MS2 coat protein.
- Test system: MS2 coat protein
- Test description: apparent KD of MS2 coat protein, switch OFF state (with FMN for OFF switches, without FMN for ON switches); designed switch direction (-1 OFF switch, 1 ON switch): -1; higher = weaker reporter binding
- Settings: FMN input: 0 or 200 uM; Eterna round: R93 (includes R88 designs)

{"Input sequence": "AAAUGACAUGAGGAUCACCCAUGUCAGGAUAUGACUUGAAAAAUAAAAUAAAAACAUGUCAGAAGGGACAUGGA [Design 51: Sub-opt GB]", "Tested system": "MS2 coat protein", "Measurement units": "µM", "apparent KD of MS2 coat protein": 0.0208}
{"Input sequence": "CUCUAGUCAGGAUAUGGAAGAAAAGAAGAGAAAGAAAAGAACCAGAAGGGACAUGAGGAUCACCCAUGUAAGAA [EteRNA is fun!]", "Tested system": "MS2 coat protein", "Measurement units": "µM", "apparent KD of MS2 coat protein": 0.0418}
{"Input sequence": "AUAAUGAGAGGAUAUACAUGAGGAUCACCCAUGUAAUUAACACGGCGAGCACCAAUACGUAGAAGGCUCAUUUA [JR_Exc003+Sub602]", "Tested system": "MS2 coat protein", "Measurement units": "µM", "apparent KD of MS2 coat protein": 0.0499}
{"Input sequence": "AAAAAACAUGAGGAUCACCCAUGUGAGGAUAUCCUAAAGGGAAUAAAAUAACUCAAAAGGAGAAGGCGCAAAAA [Ex 1 May 31]", "Tested system": "MS2 coat protein", "Measurement units": "µM", "apparent KD of MS2 coat protein": 0.0463}
{"Input sequence": "GAAAAGGUAGGAUAUACGAAAAAAAAGGGUAAAAUAAAUAAACAUGAGGAUCACCCAUGUAGAAGGACCAAAAG [Mat - Exclusion 2 - Tesla mod - D39]", "Tested system": "MS2 coat protein", "Measurement units": "µM", "apparent KD of MS2 coat protein": 0.0496}
{"Input sequence": "AAAAAACAUGAGGAUCACCCAUGUGAGGAUAUCGCUAGUCAGUCAUCAGAGUGAGUGAUGAGAAGGCACAUAAA [Brourd 613 Mod 6 - Jieux - Exclusion 1]", "Tested system": "MS2 coat protein", "Measurement units": "µM", "apparent KD of MS2 coat protein": 0.0319}
